Just for reference, patent US20260109776A1 is where these values come from.

# ASSAYED SYSTEM: T1, human TNFR14 (human, UniProt Q92956 39-283)
# T1 construct: whole, on cells
# T1 sequence (looked up): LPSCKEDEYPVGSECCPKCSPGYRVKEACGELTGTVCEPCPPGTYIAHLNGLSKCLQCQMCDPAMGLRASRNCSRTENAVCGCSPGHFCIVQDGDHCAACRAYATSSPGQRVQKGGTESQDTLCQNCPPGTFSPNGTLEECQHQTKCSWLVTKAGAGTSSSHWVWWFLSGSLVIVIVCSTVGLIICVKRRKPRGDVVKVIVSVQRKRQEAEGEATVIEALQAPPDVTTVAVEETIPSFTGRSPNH
# TEST METHOD NOTES: flow cytometry, HEK293 transfectants
PROPERTY LABEL: binding result

30A12 (antibody, IgG4, V domains shown, also called 4878-1) VH: EVQLLESGGGLVQPGGSLRLSCAASGFTFSRNAMSWVRQAPGKGLEWVSATGGSGISTYYADSVKGRFTISRDNSKNTLYLQMNSLRAEDTAVYYCARGYSNSWWYFDYWGQGTLVTVSS VL: QSALTQPASVSGSPGQSITISCTGTSSDVGNYNLVSWYQQHPGKAPKLMIFEVNQRPSGVSNRFSGSKSGTTASLTISGLQAADEADYFCCSYTTSSTYVIFGGGTKLTVLG ... no binding
33H6 (antibody, IgG4, V domains shown, also called 4883-1) VH: QVQLVQSGAEVKKPGASVKVSCKASGYTFPGYYMYWLRQAPGQGLEWMGWINPDSGDTNYAQKFQGRVTMTRDTSISTAFMELSRLRSDDTAVYYCAREKPRYFDSFYYYLMDVWGQGTTVTVSS VL: DIQMTQSPSSLSASVGDRVTITCRAGQNISRHLNWYQQNPGKAPKVLIHPASSLPSGVPSRFSGSGSGTDFSLTISSLQPEDFGTYFCQQSYSTPPTFGGGTKVELKR ... no binding
36F3 (antibody, IgG4, V domains shown, also called 4891-1) VH: QVQLQQSGPGLVKPSQTLSLTCAISGDSVSSSRTAWNWIRQSPSRGLEWLGRTYYRSKWYHDYSVSVKSRITIDPDTSKNQFSLQLNSVTPEDTAVYYCARGAAPFDYWGQGTLVTVSS VL: EIVLTQSPGTLSLSPGERATLSCRASQSVSSNYLAWYQQKPGQAPRALIYAASNRAAGISDRFSGSGSGTDFTLTISRLEPEDFAVYFCQQYGSSPLTFGGGTKVEIKR ... no binding
